experiment: Summary of the strongest expressions over the administration routes; conditions: strongest level of the three administrations
REPORTED PROPERTY: Summary of the strongest expressions

[[record]]
molecule = "CCCCC/C=C\\C/C=C\\CCCCCCCCOP(=O)(NCCCN1CCN(CCCN(CCCCCCC(=O)OC(CC)CCCCCCCC)CCCCCCC(=O)OC(CC)CCCCCCCC)CC1)OCCCCCCCC/C=C\\C/C=C\\CCCCC (stereo not shown)"
result = "A (A: ≥2)"

[[record]]
molecule = "CCCCCCCCCCCCN(CCCCCCCCCCCC)CCCN1CCN(CCCNP(=O)(OCCCCCCCCOC(=O)C(CCCCCC)CCCCCCCC)OCCCCCCCCOC(=O)C(CCCCCC)CCCCCCCC)CC1 (stereo not shown)"
result = "A (A: ≥2)"

[[record]]
molecule = "CCCCCCCC/C=C\\CCOC(=O)CCCOP(=O)(NCCN(CCCCCCCCCCCC)CCCN(C)C)OCCCC(=O)OCC/C=C\\CCCCCCCC"
result = "A (A: ≥2)"


meta.source: patent US20260085081A1
